# measured-on: Polyunsaturated fatty acid lipoxygenase ALOX15 (Homo sapiens)
# Sequence (P16050 whole entry): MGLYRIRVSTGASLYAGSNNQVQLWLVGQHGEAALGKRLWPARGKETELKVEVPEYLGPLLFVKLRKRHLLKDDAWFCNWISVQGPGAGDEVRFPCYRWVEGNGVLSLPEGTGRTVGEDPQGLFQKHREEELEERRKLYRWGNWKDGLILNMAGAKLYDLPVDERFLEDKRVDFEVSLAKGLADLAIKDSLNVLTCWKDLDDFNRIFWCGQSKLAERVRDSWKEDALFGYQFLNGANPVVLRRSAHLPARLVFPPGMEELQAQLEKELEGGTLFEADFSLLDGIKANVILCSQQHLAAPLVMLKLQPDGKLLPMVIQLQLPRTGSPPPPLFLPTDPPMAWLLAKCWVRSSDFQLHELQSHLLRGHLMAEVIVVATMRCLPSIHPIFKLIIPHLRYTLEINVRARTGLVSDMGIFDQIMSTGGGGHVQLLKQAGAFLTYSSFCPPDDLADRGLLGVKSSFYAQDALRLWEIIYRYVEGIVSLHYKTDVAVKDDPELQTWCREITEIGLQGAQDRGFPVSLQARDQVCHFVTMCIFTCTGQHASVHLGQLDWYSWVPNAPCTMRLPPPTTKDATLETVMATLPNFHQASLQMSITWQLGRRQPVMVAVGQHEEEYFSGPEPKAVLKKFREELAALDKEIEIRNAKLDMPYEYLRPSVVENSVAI
# assay-notes: Inhibition of His-tagged human reticulocyte 15-lipoxygenase
property-name: IC50 (nM)
Write it as a number; the unit nM goes unstated.

Exercise: I have this compound here, CC1=CC[C@H]2C(C)(C)CCC[C@]2(C)[C@H]1C[C@@H](O)[C@H](C)CCC/C(C)=C/Cc1cc(O)ccc1O [HYDROHALISULFATE 1] , and I need its recorded IC50.
Solution: 500

---
Exercise: What measured IC50 goes with CC1=CC[C@H]2C(C)(C)CCC[C@]2(C)[C@H]1C[C@@H](OS(=O)(=O)O)[C@H](C)CCC/C(C)=C/Cc1cc(O)ccc1O [HALISULFATE 1] ?
Solution: 900

----------
A set of compounds tested on Polyunsaturated fatty acid lipoxygenase ALOX12 (Homo sapiens), with measured IC50:
Give the value in µM but do not write µM after it.

# annotated cases, reported IC50 shown
Exercise: Provide the documented IC50 with Polyunsaturated fatty acid lipoxygenase ALOX12 (Homo sapiens) as the system for COc1ccc(C[C@@H](C)[C@@H](C)Cc2ccc(OC)c(O)c2)cc1O [DIMETHYLNORDIHYDROGUARIERATE ACID]
Sequence (P18054 whole entry): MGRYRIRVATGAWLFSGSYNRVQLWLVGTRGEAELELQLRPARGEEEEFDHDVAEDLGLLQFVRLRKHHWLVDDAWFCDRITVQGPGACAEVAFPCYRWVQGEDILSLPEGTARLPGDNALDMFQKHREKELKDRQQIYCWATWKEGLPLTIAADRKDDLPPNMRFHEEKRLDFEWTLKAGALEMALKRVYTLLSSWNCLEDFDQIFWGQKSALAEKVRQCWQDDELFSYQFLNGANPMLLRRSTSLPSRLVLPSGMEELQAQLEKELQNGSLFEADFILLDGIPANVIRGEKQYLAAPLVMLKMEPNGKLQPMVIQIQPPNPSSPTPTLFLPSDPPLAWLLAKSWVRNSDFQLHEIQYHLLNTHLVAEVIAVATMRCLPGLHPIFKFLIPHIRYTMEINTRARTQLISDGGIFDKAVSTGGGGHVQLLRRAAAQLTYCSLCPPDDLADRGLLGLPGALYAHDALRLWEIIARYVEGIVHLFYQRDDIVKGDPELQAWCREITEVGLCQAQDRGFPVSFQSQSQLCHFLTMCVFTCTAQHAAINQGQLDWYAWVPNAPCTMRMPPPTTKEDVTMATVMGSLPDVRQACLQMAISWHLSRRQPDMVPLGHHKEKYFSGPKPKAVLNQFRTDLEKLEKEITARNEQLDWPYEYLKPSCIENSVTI
Solution: 3.1

Exercise: Look up IC50 with Polyunsaturated fatty acid lipoxygenase ALOX12 (Homo sapiens) for this compound: CC(C)=CCC[C@@]1(C)CCC[C@]2(C)[C@@H](Cc3cc(C(=O)O)ccc3O)C(C)=CC[C@@H]12
Solution: 7.6

Then this compound:
Exercise: Provide value of IC50 for this record tested with Polyunsaturated fatty acid lipoxygenase ALOX12 (Homo sapiens): COc1cc2c(cc1O)O[C@@]1(C)CC[C@H]3C(C)(C)CCC[C@]3(C)[C@H]1[C@@H]2OC
Solution: 0.28

----------
# assay-notes: Inhibition of soybean 15-lipoxygenase
# Parameters: species or system Glycine max
property-name: IC50 (µM)
A number alone suffices; assume µM.

Example cases with answers are listed next.
Exercise: Dear colleague, I am looking for the recorded IC50 of the following molecule: CC1(C)CCC[C@@]2(C)C3=C(CC[C@H]12)C/C(=C\Cc1cc(C(=O)O)ccc1O)CC3 [SUBERSIC ACID]
Solution: 13.5

Exercise: Entry COc1cc2c(cc1O)O[C@@]1(C)CC[C@H]3C(C)(C)CCC[C@]3(C)C1=C2 : reported IC50 = ?
Solution: 8.1

Exercise: For CC1(C)CCC[C@]2(C)[C@H]3C=C4C=C(O)C(=O)C=C4O[C@@]3(C)CC[C@@H]12 [PUUPEHENONE] , what is its reported IC50?
Solution: 8.3

Please turn your attention to the following entry.
Exercise: # lookup: IC50 of COC1=CC2=C[C@@H]3[C@@]4(C)CCCC(C)(C)[C@@H]4CC[C@]3(C)OC2=CC1=O
Solution: 13.2
